// reported IC50 per item
EXPERIMENTAL TARGET: BACE1 (Homo sapiens)
Sequence (P56817 46-501, species assumed): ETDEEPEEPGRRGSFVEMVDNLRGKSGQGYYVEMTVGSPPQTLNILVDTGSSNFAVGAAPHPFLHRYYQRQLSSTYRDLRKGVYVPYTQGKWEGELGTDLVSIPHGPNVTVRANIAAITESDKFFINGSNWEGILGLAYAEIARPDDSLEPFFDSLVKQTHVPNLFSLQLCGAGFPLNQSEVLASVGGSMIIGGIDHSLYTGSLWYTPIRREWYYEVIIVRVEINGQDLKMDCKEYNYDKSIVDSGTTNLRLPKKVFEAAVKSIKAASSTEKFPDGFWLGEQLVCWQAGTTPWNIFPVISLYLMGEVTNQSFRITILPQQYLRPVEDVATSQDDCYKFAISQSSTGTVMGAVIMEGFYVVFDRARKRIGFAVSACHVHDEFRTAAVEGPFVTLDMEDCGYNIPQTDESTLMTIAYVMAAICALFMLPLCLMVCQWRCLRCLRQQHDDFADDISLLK
ASSAY INFO: In Vitro BACE Cell-based Assay (HEK cell assay): Aβ40 in conditioned medium of cells stably expressing Amyloid Precursor Protein, sandwich ELISA
TEST SETTINGS: HEK cell-based assay, Aβ40 in conditioned medium, IC50 class symbols; read-out: HEK cell assay

// below: answered molecules
IC50 for COc1ccc2c(c1)[C@]1(COC(N)=N1)c1cc(C3=CCOCC3)cc(F)c1O2 is > 5 µM

IC50 for COC(C)(C)COc1cnc2c(c1)[C@@]1(COC(N)=N1)c1cc(-c3ccccc3)ccc1O2 is 1 to 5 µM

IC50 for CC(C)(C)COc1cnc2c(c1)[C@]1(COC(N)=N1)c1cc(Br)ccc1O2 is 1 to 5 µM

IC50 for Cc1cc(-c2ccc3c(c2)[C@]2(COC(N)=N2)c2cc(-c4cccnc4)ccc2O3)cc(=O)o1 is < 0.1 µM

Continue with the molecule presented below.
IC50 for CC(C)(C#N)COc1cnc2c(c1)[C@]1(COC(N)=N1)c1cc(-c3cc(F)ccc3F)ccc1O2 is < 0.1 µM
